Molecular target: Bile acid receptor (Homo sapiens, UniProt Q96RI1)
Assay: Inhibition of GW4064-induced fluorecein-labeled SRC2-2 coactivator recruitment in GST-tagged FXR LBD (unknown origin) by Lanthascreen TR-FRET assay
pIC50: −log10 of the molar value.
// label = t if pIC50 is not less than 4, otherwise f

- CC(C)[C@@H](c1nc2ccc(C(=O)O)cc2n1C)N1C(=O)CN(c2ccc(Oc3ccccc3)cc2)C1=O: f
- CC[C@@H](c1nc2ccc(C(=O)O)cc2n1C)N1C(=O)CN(c2ccc(Oc3ccccc3)cc2)C1=O: f
- Cn1c([C@H](CC2CCCCC2)N2C(=O)CN(c3ccc(Oc4ccccc4)cc3)C2=O)nc2ccc(C(=O)O)cc21: t
- C[C@@H](c1nc2ccc(C(=O)O)cc2n1C)N1C(=O)CN(c2ccc(Oc3ccccc3)cc2)C1=O: t
- CC(C)C[C@@H](c1nc2ccc(C(=O)O)cc2n1C)N1CC(=O)N(c2ccc(Oc3ccccc3)cc2)CC1=O: f
- Cc1ccc2nc([C@H](CC(C)C)N3C(=O)CN(c4ccc(Oc5ccccc5)cc4)C3=O)n(C)c2c1: t

* * *

Molecular target: Bile acid receptor (Homo sapiens)
Sequence (Q96RI1 whole entry): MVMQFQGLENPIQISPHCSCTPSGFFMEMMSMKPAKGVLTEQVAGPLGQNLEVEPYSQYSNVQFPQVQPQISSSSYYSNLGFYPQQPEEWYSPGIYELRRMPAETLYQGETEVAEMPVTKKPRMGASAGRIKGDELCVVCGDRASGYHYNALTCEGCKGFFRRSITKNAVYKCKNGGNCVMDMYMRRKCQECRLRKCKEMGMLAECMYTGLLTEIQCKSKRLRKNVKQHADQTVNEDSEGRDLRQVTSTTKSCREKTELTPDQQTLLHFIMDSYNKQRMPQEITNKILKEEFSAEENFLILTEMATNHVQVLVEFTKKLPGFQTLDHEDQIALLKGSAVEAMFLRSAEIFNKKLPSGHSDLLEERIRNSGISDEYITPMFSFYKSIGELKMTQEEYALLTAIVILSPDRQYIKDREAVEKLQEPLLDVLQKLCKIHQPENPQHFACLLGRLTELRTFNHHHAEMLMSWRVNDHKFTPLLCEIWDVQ
Experiment: Inhibition of GW4064-induced fluorecein-labeled SRC2-2 coactivator recruitment in GST-tagged FXR LBD (unknown origin) by Lanthascreen TR-FRET assay
PROPERTY_NAME: IC50

* CC(C)C[C@H](c1nc2ccc(C(=O)O)cc2n1C)N1C(=O)CN(c2ccc(Oc3ccccc3)cc2)C1=O | 6.6 to 66.6 µM
* CC(C)C[C@@H](c1nc2ccc(C(=O)O)cc2n1C)N1C(=O)CN(c2ccc(Oc3ccc(Cl)cc3)cc2)C1=O | 2.56 µM
* CC(C)C[C@@H](c1nc2ccc(C(=O)O)cc2n1C)N1C(=O)CN(c2ccc(-c3ccccc3)cc2)C1=O | 23.1 µM
* Cn1c([C@H](Cc2ccccc2)N2C(=O)CN(c3ccc(Oc4ccccc4)cc3)C2=O)nc2ccc(C(=O)O)cc21 | 35.2 µM
* CC(C)C[C@@H](c1nc2ccc(C(=O)O)cc2n1C)N1C(=O)CN(c2ccc(Oc3ccccc3)cc2)C1=O | 43.4 µM
* CC(C)[C@H](c1nc2ccc(C(=O)O)cc2n1C)N1C(=O)CN(c2ccc(Oc3ccccc3)cc2)C1=O | 118 µM
* CC(C)C[C@@H](c1nc2ccc(C(=O)O)cc2n1C)N1C(=O)N(c2ccc(Oc3ccccc3)cc2)C(C)(C)C1=O | 105 µM
* CC(C)C[C@@H](c1nc2ccc(C(=O)O)cc2n1C)N1C(=O)CN(c2cccc(Oc3ccccc3)c2)C1=O | 18.2 µM
* CC(C)C[C@@H](c1nc2cc(C(=O)O)ccc2n1C)N1C(=O)CN(c2ccc(Oc3ccccc3)cc2)C1=O | 113 µM
